# target: GST-tagged recombinant full-length human Pim-2 (Homo sapiens, UniProt Q9P1W9)
# Construct: GST-tagged recombinant full-length human Pim-2; GST
# Sequence (Q9P1W9 whole entry): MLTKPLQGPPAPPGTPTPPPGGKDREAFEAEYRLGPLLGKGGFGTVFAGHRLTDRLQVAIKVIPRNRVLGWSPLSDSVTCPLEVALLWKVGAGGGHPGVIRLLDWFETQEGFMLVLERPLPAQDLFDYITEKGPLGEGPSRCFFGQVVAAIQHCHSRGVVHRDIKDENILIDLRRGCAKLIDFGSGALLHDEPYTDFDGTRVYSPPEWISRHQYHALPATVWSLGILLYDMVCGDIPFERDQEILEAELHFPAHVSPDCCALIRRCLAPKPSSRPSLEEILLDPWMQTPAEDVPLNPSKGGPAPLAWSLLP
# test-name: PIM-2 Assay (as Example A)
# conditions: averaged IC50; 4 μM ATP, 1.0 μM PIM2tide, 1.5 nM Pim-2
Where a name gives a salt, the structure may show the parent alone.
Labels assigned by IC50 range: lower band: < 60 nM; central band: ≥ 60 nM and < 200 nM; upper band: ≥ 200 nM

N[C@H]1CCN([C@H](c2ccc3nnc(-c4ccc5cccc(C6(CO)CC6)c5n4)n3c2)C(F)(F)F)C1 [Example 114, dihydrochloride] ... lower band
CC(C)(O)COc1ccc2ccc(-c3nnc4ccc([C@@H](N5CC[C@H](N)C5)C(F)(F)F)cn34)nc2c1 [Example 278, dihydrochloride] ... central band
COC[C@@H](C)Oc1cc2nc(-c3nnc4ccc([C@@H](N5CC[C@H](N)C5)C(F)(F)F)cn34)ccc2cc1F [Example 160, dihydrochloride] ... lower band
CC(C)Oc1cccc2ccc(-c3nnc4ccc([C@@H](N5CC[C@](C)(N)C5)C(F)(F)F)cn34)nc12 [Example 93, dihydrochloride] ... central band
CC(C)(CCO)c1cccc2ccc(-c3nnc4ccc([C@@H](N5CC[C@H](N)C5)C(F)(F)F)cn34)nc12 [Example 224, dihydrochloride] ... central band
COCCOc1ccc2ccc(-c3nnc4ccc([C@@H](N5CC[C@H](N)C5)C(F)(F)F)cn34)nc2c1C [Example 117, hydrochloride] ... upper band
CCOc1ccc2ccc(-c3nnc4ccc([C@H](N5CCC6(CCCN6)C5)C(F)(F)F)cn34)nc2c1 (stereo partly drawn) [Example 258, dihydrochloride] ... upper band
COCC(C)(C)Oc1cc(F)cc2ccc(-c3nnc4ccc([C@@H](N5CC[C@H](N)C5)C(F)(F)F)cn34)nc12 [Example 264, formate] ... upper band
